- Tested on: Salmonella enterica serovar Typhimurium TA100
- PROTOCOL TEXT: Salmonella/microsome assay, TA100
- TEST SETTINGS: +S9, 1500 µM
OBSERVABLE: revertant His+ colonies TA100

>>> result("CC(=O)Nc1ccccc1C(F)(F)C(=O)NCC[C@@H]1C[C@H](CC(=O)OC(C)(C)C)OC(C)(C)O1 [Compound 13a]")
290
>>> result("CC(=O)Nc1ccc(C)cc1C(F)(F)C(=O)NCC[C@@H]1C[C@H](CC(=O)OC(C)(C)C)OC(C)(C)O1 [Compound 13b]")
333
>>> result("CC(=O)Nc1ccc(Cl)cc1C(F)(F)C(=O)NCC[C@@H]1C[C@H](CC(=O)OC(C)(C)C)OC(C)(C)O1 [Compound 13c]")
300

====

- Tested on: Salmonella enterica serovar Typhimurium TA104
- PROTOCOL TEXT: Salmonella/microsome assay, TA104
- TEST SETTINGS: −S9, 150 µM
OBSERVABLE: revertant His+ colonies TA104

>>> result("CC(=O)Nc1ccc(Br)cc1C(F)(F)C(=O)NCC[C@@H]1C[C@H](CC(=O)OC(C)(C)C)OC(C)(C)O1 [Compound 13d]")
605
>>> result("CC(=O)Nc1ccccc1C(F)(F)C(=O)NCC[C@@H]1C[C@H](CC(=O)OC(C)(C)C)OC(C)(C)O1 [Compound 13a]")
315
>>> result("CC(=O)Nc1ccc(C)cc1C(F)(F)C(=O)NCC[C@@H]1C[C@H](CC(=O)OC(C)(C)C)OC(C)(C)O1 [Compound 13b]")
326
>>> result("CC(=O)Nc1ccc(Cl)cc1C(F)(F)C(=O)NCC[C@@H]1C[C@H](CC(=O)OC(C)(C)C)OC(C)(C)O1 [Compound 13c]")
201

====

- Test system: Salmonella enterica serovar Typhimurium TA97
- PROTOCOL TEXT: Salmonella/microsome assay, TA97
- TEST SETTINGS: +S9, 3 µM
OBSERVABLE: revertant His+ colonies TA97

>>> result("CC(=O)Nc1ccc(Br)cc1C(F)(F)C(=O)NCC[C@@H]1C[C@H](CC(=O)OC(C)(C)C)OC(C)(C)O1 [Compound 13d]")
134
>>> result("CC(=O)Nc1ccc(C)cc1C(F)(F)C(=O)NCC[C@@H]1C[C@H](CC(=O)OC(C)(C)C)OC(C)(C)O1 [Compound 13b]")
189
>>> result("CC(=O)Nc1ccccc1C(F)(F)C(=O)NCC[C@@H]1C[C@H](CC(=O)OC(C)(C)C)OC(C)(C)O1 [Compound 13a]")
214
>>> result("CC(=O)Nc1ccc(Cl)cc1C(F)(F)C(=O)NCC[C@@H]1C[C@H](CC(=O)OC(C)(C)C)OC(C)(C)O1 [Compound 13c]")
219

====

- Test system: Salmonella enterica serovar Typhimurium TA104
- PROTOCOL TEXT: Salmonella/microsome assay, TA104
- TEST SETTINGS: +S9, 1500 µM
# key: entry, value: revertant His+ colonies TA104
OBSERVABLE: revertant His+ colonies TA104

>>> result("CC(=O)Nc1ccc(C)cc1C(F)(F)C(=O)NCC[C@@H]1C[C@H](CC(=O)OC(C)(C)C)OC(C)(C)O1 [Compound 13b]")
510
>>> result("CC(=O)Nc1ccc(Br)cc1C(F)(F)C(=O)NCC[C@@H]1C[C@H](CC(=O)OC(C)(C)C)OC(C)(C)O1 [Compound 13d]")
591

Values compiled from paper PMC10301432.
